- assay_procedure: stimulators of insulin release from INS-1E, primary screen, cell-based, 5 mM glucose, NPC library (AID 1117329); also: reference of the scale not given here
- assay_setup: rat INS-1E insulin secretion, at 10 µM, stronger effect = higher value
Entries and their measured insulin secretion stimulation follow.
measured_property: insulin secretion stimulation (%)

Cc1nnc(NS(=O)(=O)c2ccc(N)cc2)s1 :: -2.4
COCCCC/C(=N\OCCN)c1ccc(C(F)(F)F)cc1 :: 1.6
CCn1cc(C(=O)O)c(=O)c2cc(F)c(N3CCNCC3)nc21 :: -0.1
NS(=O)(=O)c1cc2c(cc1Cl)NC(C(Cl)Cl)NS2(=O)=O (stereo unspecified) :: 1.15
C/C=C/c1ccc(OC)cc1 :: 1.3
Oc1c(Cl)cc(Cl)cc1Sc1cc(Cl)cc(Cl)c1O :: 5.2
CO/N=C1\CN(c2nc3c(cc2F)c(=O)c(C(=O)O)cn3C2CC2)CC1CN (stereo unspecified) :: 3
CC(=O)Nc1ccc(CC(=O)O)cc1 :: -2.2
CCOc1cc(CC(=O)N[C@@H](CC(C)C)c2ccccc2N2CCCCC2)ccc1C(=O)O :: 43.9
CC(=O)Nc1ccc(OCC(O)CNC(C)C)cc1 (stereo unspecified) :: 5.6
CN(C)CC/C=C1/c2ccccc2COc2ccc(CC(=O)O)cc21 :: 1.85
CN(CCOc1ccc(NS(C)(=O)=O)cc1)CCc1ccc(NS(C)(=O)=O)cc1 :: 1.25
CC1(C)S[C@@H]2[C@H](NC(=O)[C@H](N)c3ccccc3)C(=O)N2[C@H]1C(=O)O :: -0.2
O=C(c1ccc(F)cc1)C1CCN(CCn2c(=O)[nH]c3ccccc3c2=O)CC1 :: 2.5
O=C(O)/C=C(\CC(=O)O)C(=O)O :: -2.3
CNS(=O)(=O)Cc1ccc2[nH]cc(CCN(C)C)c2c1 :: 0.3

----------
- assay_procedure: Wnt pathway potentiators raising nuclear beta-catenin – imaging, WNT3A-conditioned medium, mouse C2C12, NPC library, primary screen (AID 1117326); also: reference of the scale not given here
- assay_setup: at 10 µM, stronger effect = higher value
Entries and their measured nuclear beta-catenin stimulation follow.
measured_property: nuclear beta-catenin stimulation (%)

Clc1ccccc1C(c1ccccc1)(c1ccccc1)n1ccnc1 :: 1.1
O=C(OCC(O)CO)c1ccccc1Nc1ccnc2cc(Cl)ccc12 (stereo not given) :: 3.1
CN1[C@@H]2CC[C@H]1CC(OC(=O)c1c[nH]c3ccccc13)C2 (stereo not given in full) :: 1.1
CCOC(=O)OC(C)OC(=O)[C@@H]1N2C(=O)[C@@H](NC(=O)[C@H](N)c3ccccc3)[C@H]2SC1(C)C (stereo not given in full) :: 1.2
O=c1c(O)c(-c2ccc(O)c(O)c2)oc2cc(O)cc(O)c12 :: 2.6

----------
- Tested on: F380Y/beta4
- assay_procedure: BK channel mutant inhibitors and activators – cell-based, U2OS BacMam, thallium flux, beta subunits, selectivity assay, profiling panel (AID 1259406);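 also: initial slope of Thallos dye fluorescence rise after thallium is added; log ratio against the mean of 0.3% DMSO vehicle wells on the same plate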
- assay_setup: U2OS BacMam BK variants, at 30 µM
Label scheme, based on log fold change Tl+ flux: low class (below 0.03), middle class (0.03 to below 0.1), high class (0.1 or more)

CC(C)(C)C(O)/C=C/c1ccc2c(c1)OCO2 (centres undefined) :: low class
C[C@@H]1C[C@H]2[C@@H]3C[C@H](F)C4=CC(=O)C(Cl)=C[C@]4(C)[C@@]3(F)[C@@H](O)C[C@]2(C)[C@@]1(O)C(=O)CO :: high class
COc1cc2nc(N3CCN(C(=O)C4CCCO4)CC3)nc(N)c2cc1OC (centres undefined) :: low class
NS(=O)(=O)c1cc(C(=O)O)c(NCc2ccco2)cc1Cl :: low class
CC(C)(O)c1ccccc1CC[C@@H](SCC1(CC(=O)O)CC1)c1cccc(/C=C/c2ccc3ccc(Cl)cc3n2)c1 :: high class
CCc1oc2ccccc2c1C(=O)c1cc(Br)c(O)c(Br)c1 :: high class
CCCOc1ccc(C(=O)OCCN(CC)CC)cc1N :: low class
CN1CCN(C2=Nc3cc(F)ccc3Cc3ccccc32)CC1 :: middle class
C[C@@H]1C[C@H]2[C@@H]3CCC4=CC(=O)C=C[C@]4(C)[C@@]3(F)[C@@H](O)C[C@]2(C)[C@H]1C(=O)CO :: middle class

----------
- Tested on: R275C/beta2Delta
- assay_procedure: BK channel mutant inhibitors and activators – cell-based, U2OS BacMam, thallium flux, beta subunits, selectivity assay, profiling panel (AID 1259406);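 also: initial slope of Thallos dye fluorescence rise after thallium is added; log ratio against the mean of 0.3% DMSO vehicle wells on the same plate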
- assay_setup: U2OS BacMam BK variants, at 30 µM
Entries and their measured log fold change Tl+ flux follow.
measured_property: log fold change Tl+ flux

Cn1nnc2c(C(N)=O)ncn2c1=O :: 0.0357
CC(C)c1nc(CN(C)C(=O)N[C@H](C(=O)N[C@@H](Cc2ccccc2)C[C@H](O)[C@H](Cc2ccccc2)NC(=O)OCc2cncs2)C(C)C)cs1 :: -0.208
Nc1nc2c(ncn2COC(CO)CO)c(=O)[nH]1 :: 0.0472
CN1CCN(c2c(F)cc3c(=O)c(C(=O)O)cn4c3c2SCC4)CC1 :: 0.0239
CN1[C@@H]2CC[C@H]1CC(OC(=O)c1c[nH]c3ccccc13)C2 (stereo not given in full) :: 0.045
CCOc1cc(CC(=O)N[C@@H](CC(C)C)c2ccccc2N2CCCCC2)ccc1C(=O)O :: 0.262
COC1=C(OC)C(=O)C(CCCCCCCCCCO)=C(C)C1=O :: -0.151
CCOC(=O)c1ncn2c1CN(C)C(=O)c1cc(F)ccc1-2 :: 0.0168
COc1cc(C(=O)NS(=O)(=O)c2ccccc2C)ccc1Cc1cn(C)c2ccc(NC(=O)OC3CCCC3)cc12 :: 0.38
CN1CCC(=C2c3ccccc3C=Cc3ccccc32)CC1 :: 0.144

----------
- system_tested: ATP-dependent translocase ABCB1 (Homo sapiens)
- assay_procedure: P-glycoprotein substrate transport blockade – cell-based (AID 377)
- assay_setup: MDR1-expressing cells, fluorescent substrate accumulation slope; concentration not given here
Results filed as inconclusive are left out. Activity calls are given as the source filed them. Cut-off read from the data, not from the text of the source: active = fluorescence slope change above about 50%; inconclusive = mostly about 31% to 49%; inactive = weaker than that.
Possible outcomes: y for active, n for inactive

CCCCC1(COC(=O)CCC(=O)O)C(=O)N(c2ccccc2)N(c2ccccc2)C1=O :: n
CC[C@]12CCCN3CCc4c(n(c5ccccc45)[C@@](O)(C(=O)OC)C1)[C@@H]32 :: n
Nc1cc(-c2ccncc2)c[nH]c1=O :: n
CN1CCN(C2=Nc3ccccc3Oc3ccc(Cl)cc32)CC1 :: y
COc1ccc2c(c1)c(CC(=O)OCC(=O)O)c(C)n2C(=O)c1ccc(Cl)cc1 :: y
CC1CC(OC(=O)C(O)c2ccccc2)CC(C)(C)N1C (configuration not stated) :: n
CCCOc1ccccc1-c1nc2n[nH]nc2c(=O)[nH]1 :: n
Cc1cccc(C)c1OCC(C)N (configuration not stated) :: n
C/C=C(/C(=C/C)c1ccc(O)cc1)c1ccc(O)cc1 :: n
COC(=O)Nc1nc2ccc(Sc3ccccc3)cc2[nH]1 :: y
NC(N)=NC(=O)Cc1c(Cl)cccc1Cl :: y
Cc1cc2cc3c(C)cc(=O)oc3c(C)c2o1 :: n

----------
Entries and their measured z-score follow.
- assay_procedure: MELAS cybrid and Rieske KO viability enhancers – cell-based, MELAS cybrids, Rieske KO mouse fibroblasts, CellTiter-Glo, primary screen (AID 1508586);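 also: z relative to plate mean and SD of compound and empty wells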
- assay_setup: Rieske KO mouse fibroblast survival, low glucose, CellTiter-Glo 72 h
measured_property: z-score

NC(=O)NO :: 0.485
Cc1cc(CC(=O)O)n(C)c1C(=O)c1ccc(Cl)cc1 :: -0.331
CCN1CCC[C@H]1CNC(=O)c1cc(S(N)(=O)=O)ccc1OC :: 0.62
CS(=O)(=O)c1ccc([C@@H](O)[C@@H](CO)NC(=O)C(Cl)Cl)cc1 :: -3.27
Cc1ccc2c(Cl)cc(Cl)c(O)c2n1 :: -0.123
CN(C)[C@@H]1C(=O)C(C(N)=O)=C(O)[C@@]2(O)C(=O)C3=C(O)c4c(O)ccc(Cl)c4[C@@H](O)[C@H]3C[C@@H]12 :: -1.49
COC(=O)C1=C(C)NC(C)=C(C(=O)O[C@@H]2CCCN(Cc3ccccc3)C2)[C@@H]1c1cccc([N+](=O)[O-])c1 :: 0.352
COCc1c(C(C)C)nc(C(C)C)c(/C=C/[C@@H](O)C[C@@H](O)CC(=O)O)c1-c1ccc(F)cc1 :: -0.402
C=C1c2cccc(O)c2C(O)=C2C(=O)[C@]3(O)C(O)=C(C(N)=O)C(=O)[C@@H](N(C)C)[C@@H]3[C@@H](O)[C@H]12 :: -2.31
Cc1cc2cc3c(C)cc(=O)oc3c(C)c2o1 :: -0.528

----------
- assay_procedure: P. berghei load reduction in hepatocytes – cell-based, HepG2, luciferase luminescence, HepG2 viability, primary screen (AID 624349);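 also: 100% = mean of DMSO negative control wells on the same plate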
- assay_setup: P. berghei liver stage in HepG2, luciferase luminescence, concentration not given here; measured here: HepG2 viability without parasites
Threshold 90%. viability below it: satisfied. viability at it or above: not satisfied.

CC(=O)NCCCCCC(=O)O :: not satisfied
O=C1[C@H]2CCCC[C@H]2C(=O)N1CCCCN1CCN(c2nsc3ccccc23)CC1 :: satisfied
N[C@@H](CCC(=O)N[C@@H](CS)C(=O)NCC(=O)O)C(=O)O :: satisfied
CC(=O)Oc1ccccc1C(=O)Nc1ncc([N+](=O)[O-])s1 :: satisfied
CO[C@@]12[C@H](COC(N)=O)C3=C(C(=O)C(C)=C(N)C3=O)N1C[C@@H]1N[C@@H]12 :: satisfied
CC1(C)O[C@@H]2C[C@H]3[C@@H]4C[C@H](F)C5=CC(=O)CC[C@]5(C)[C@H]4[C@@H](O)C[C@]3(C)[C@]2(C(=O)CO)O1 :: not satisfied
Cc1cn[nH]c1 :: not satisfied
COc1ccc2cc1Oc1ccc(cc1)C[C@H]1c3c(cc4c(c3Oc3cc5c(cc3OC)CCN(C)[C@@H]5C2)OCO4)CCN1C :: satisfied
CCCCc1ccc2nc(NC(=O)OC)[nH]c2c1 :: satisfied
